biological target: Gal(b1-4)GlcNAc(b1-3)[Fuc(a1-3)GlcNAc(b1-6)]Gal(b1-4)Glc; assay: glycan array binding signal (z-score within array); higher = stronger binding; conditions: glycan notation: IUPAC condensed, linker removed
The entries come from a sample that favours the strongest signals as a whole.
MEASUREMENT NAME: glycan array binding signal (z-score)

[[record]]
binder = "Clrb (Mus musculus) (protein) ITGATKTEQIPVNKTYAACPQNWIGVENKCFYFSEYPSNWTFAQAFCMAQEAQLARFDNQDELNFLMRYKANFDSWIGLHRESSEHPWKWTDNTEYNNTIPIRGEERFAYLNNNGISSTRIYSLRMWICSKLNSYSLHCQTPFFPSGTKHHHHHHHHG"
reported_result = -0.386

